- System: UO-31 renal
- experiment: NCI tumour cell line growth inhibition, 48 h
reported_metric: TGI

Some compounds with known TGI results, for comparison:
* CC(C)(C)OC(=O)CCCCCNC(=O)CCCCCNC(=O)CCC(CN(CC(=O)OCc1ccccc1)CC(=O)OCc1ccccc1)N(CC(=O)OCc1ccccc1)CC(=O)OCc1ccccc1 (centres undefined) | > 100 µM
* CC[C@H]1OC(=O)[C@H](C)[C@@H](O[C@H]2C[C@@](C)(OC)[C@@H](O)[C@H](C)O2)[C@H](C)[C@@H](O[C@@H]2O[C@H](C)C[C@H](N(C)C)[C@H]2O)[C@](C)(OC)C/C(C)=C2/O[C@@]1(C)C=C2C | 2.65 µM
* COc1cc(-c2nn(-c3cccc(NC(=O)CCNc4ccc(N5CCOCC5)cc4)c3)cc2-c2ccncc2)ccc1Cl | > 100 µM

# input for lookup
Sample CSc1nc(=O)cnn1C , system: UO-31 renal. Its TGI is > 100 µM
